// reported Ratio per item
- Tested system: Sodium-dependent dopamine transporter (Rattus norvegicus) (UniProt P23977)
- Sequence (P23977 whole entry): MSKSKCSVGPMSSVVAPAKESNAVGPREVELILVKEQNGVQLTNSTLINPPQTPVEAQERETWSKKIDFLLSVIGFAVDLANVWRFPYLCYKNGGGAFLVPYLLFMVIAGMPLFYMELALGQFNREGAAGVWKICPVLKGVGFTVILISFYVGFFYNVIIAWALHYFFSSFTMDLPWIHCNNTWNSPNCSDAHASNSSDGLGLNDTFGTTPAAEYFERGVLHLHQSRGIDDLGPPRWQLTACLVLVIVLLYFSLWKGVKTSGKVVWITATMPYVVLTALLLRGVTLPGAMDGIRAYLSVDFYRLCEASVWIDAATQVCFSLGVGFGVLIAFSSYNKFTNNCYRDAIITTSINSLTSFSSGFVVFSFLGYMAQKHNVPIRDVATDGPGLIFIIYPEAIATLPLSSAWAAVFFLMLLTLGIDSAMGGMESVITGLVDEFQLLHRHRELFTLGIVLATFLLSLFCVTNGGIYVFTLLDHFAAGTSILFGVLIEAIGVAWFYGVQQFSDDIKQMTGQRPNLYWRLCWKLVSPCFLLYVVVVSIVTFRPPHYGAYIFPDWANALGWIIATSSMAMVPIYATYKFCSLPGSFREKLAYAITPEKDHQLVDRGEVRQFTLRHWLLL
- Assay info: Ratio of reuptake inhibition on DA with respect to binding affinity of DA
- Assay type: functional
Keep it simple and answer with nothing but the number.

Some compounds with known Ratio results, for comparison:
Fc1ccc(C(OCCN2CCN(Cc3ccc4ccccc4c3)CC2)c2ccc(F)cc2)cc1	3.8
Fc1ccc(C(OCCN2CCN(Cc3nc4ccccc4[nH]3)CC2)c2ccc(F)cc2)cc1	1.3

Query: Could you share what Ratio was measured for `Fc1ccc(C(OCCN2CCN(Cc3ccc4ccccc4n3)CC2)c2ccc(F)cc2)cc1` , tested on Sodium-dependent dopamine transporter (Rattus norvegicus) (UniProt P23977)?
Response: 1.9

Query: And the next one, `Fc1ccc(C(OCCN2CCN(CCCc3ccco3)CC2)c2ccc(F)cc2)cc1` ?
Response: 1.3

Query: Again, but for `c1ccc(C(OCCN2CCN(Cc3ccc4ccccc4n3)CC2)c2ccccc2)cc1`
Response: 1

Query: Also `c1ccc(C(OCCN2CCN(Cc3cnc4ccccc4c3)CC2)c2ccccc2)cc1` , if possible.
Response: 1.5

Query: Param item: `Fc1ccc(C(OCCN2CCN(Cc3cccc4ccccc34)CC2)c2ccc(F)cc2)cc1`
Response: 10.1

Query: Note, next up: `c1ccc(C(OCCN2CCN(CCCc3ccco3)CC2)c2ccccc2)cc1`
Response: 1.3

Query: Field entry: `c1ccc(C(OCCN2CCN(Cc3cccc4ccccc34)CC2)c2ccccc2)cc1`
Response: 3.6

Query: Could you do the same for `c1ccc(C(OCCN2CCN(Cc3cc4ccccc4o3)CC2)c2ccccc2)cc1` , please?
Response: 1.3
